- system: Cholinesterase (Homo sapiens)
- Sequence (P06276 whole entry): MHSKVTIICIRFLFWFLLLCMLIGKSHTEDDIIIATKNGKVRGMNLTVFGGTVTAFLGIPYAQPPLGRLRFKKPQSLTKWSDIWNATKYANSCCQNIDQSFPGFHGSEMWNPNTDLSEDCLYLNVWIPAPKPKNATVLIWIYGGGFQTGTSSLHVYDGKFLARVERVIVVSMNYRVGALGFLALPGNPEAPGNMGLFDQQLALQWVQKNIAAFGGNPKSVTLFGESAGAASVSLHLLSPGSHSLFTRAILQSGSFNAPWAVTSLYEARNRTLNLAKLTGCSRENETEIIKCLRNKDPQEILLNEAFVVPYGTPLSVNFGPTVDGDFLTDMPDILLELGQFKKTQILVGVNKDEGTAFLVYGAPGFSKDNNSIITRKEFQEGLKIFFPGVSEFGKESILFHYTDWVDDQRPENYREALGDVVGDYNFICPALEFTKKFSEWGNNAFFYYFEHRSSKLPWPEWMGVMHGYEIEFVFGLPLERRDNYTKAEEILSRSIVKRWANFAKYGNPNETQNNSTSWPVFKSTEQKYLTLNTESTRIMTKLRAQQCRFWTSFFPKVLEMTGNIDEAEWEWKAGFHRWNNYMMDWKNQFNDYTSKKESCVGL
- assayNotes: Ratio of IC50 values obtained for BChE/ AChE
Ratio under 2 gets Criterion met, anything at or over 2 gets Criterion not met.

Consider CN(C)Cc1ccc(CSCCN/C=C(/NCCSCc2ccc(CN(C)C)o2)[N+](=O)[O-])o1 . Does its Ratio lie strictly below 2?
Criterion not met

hey, is Ratio for CN(C)Cc1ccc(CSCCCCCCCCCSCc2ccc(CN(C)C)o2)o1 lower than 2 or not?
Criterion not met

Item CN(C)Cc1ccc(CSCCCCCCCCSCc2ccc(CN(C)C)o2)o1 : Ratio beneath 2, strictly?
Criterion not met

Is 2 strictly greater than the compound's reported Ratio? compound: CN(C)Cc1ccc(CSCCCCCCCSCc2ccc(CN(C)C)o2)o1
Criterion not met

Please let me know if CN(C)Cc1ccc(CSCCNc2cc(NCCSCc3ccc(CN(C)C)o3)c([N+](=O)[O-])cc2[N+](=O)[O-])o1 shows Ratio below 2.
Criterion met
